src = PubChem BioAssay (NCI)

- Tested on: ACHN renal
- TEST PROTOCOL: NCI-60 one-dose screen, 48 h (100 = growth as untreated, 0 = no growth, -100 = all killed)
- RUN PARAMETERS: 10 µM unless noted
This is part of a sample that, as a whole, favours compounds with a hit. Of some 83,000 tested, about 20% had one in any assay.
Use Met when the recorded growth is no lower than 20%; use Not met when it is lower.

Is reported growth greater than or equal to 20% here: CCOC(=O)C1=C(C)N=C2Sc3ccccc3N2C1c1ccccc1 (stereo unspecified) Met

Is reported growth greater than or equal to 20% here: O=C(CCCCCCN1CC(=O)N2[C@@H](c3cccc(Cl)c3)c3[nH]c4ccccc4c3C[C@H]2C1=O)NO Met

Is reported growth greater than or equal to 20% here: COc1cc(/C=C2\SC(=O)NC2=O)ccc1OCC(=O)Nc1ccc(C(=O)/C=C/c2cc3ccccc3nc2Cl)cc1 Met

Is reported growth greater than or equal to 20% here: Oc1ccc(CSc2nnc(-c3ccncc3)n2-c2ccccc2)c2cccnc12 Not met

Is reported growth greater than or equal to 20% here: CS(=O)c1nccc(-c2c(-c3ccc(F)c(OCCc4ccccc4)c3)nc3sccn23)n1 (stereo unspecified) Met

Is reported growth greater than or equal to 20% here: CCCCCc1ccc(S(=O)(=O)N(C(C)=O)c2cccc(-c3csc(N(CCN4CCN(C)CC4)C(C)=O)n3)c2)cc1 Not met

Is reported growth greater than or equal to 20% here: CN1CCN(Cc2ccc(NC(=O)c3cncc(C#Cc4cnc5ccc(O[C@H]6CCOC6)nn45)c3)cc2C(F)(F)F)CC1 Not met

Is reported growth greater than or equal to 20% here: Oc1ccc(CSc2nnc(-c3ccc(Oc4ccccc4)cc3)o2)c2cccnc12 Not met

Is reported growth greater than or equal to 20% here: O=c1c2ccccc2nc(COc2ccccc2)n1/N=C/C=C/c1ccccc1 Met

Is reported growth greater than or equal to 20% here: Cc1ccc(Nc2ncnc3c2c(C)nn3-c2ccc([N+](=O)[O-])cc2)cc1 Met

Others:
Is reported growth greater than or equal to 20% here: O=C1/C(=C/c2ccc([N+](=O)[O-])cc2)SC(=Nc2ccccc2)N1Nc1ccccc1 Met

----------
- System: MDA-MB-231 breast
- TEST PROTOCOL: NCI-60 one-dose screen, 48 h
- RUN PARAMETERS: 10 µM unless noted
About 83,000 compounds went through this panel and 20% of them were active in at least one assay; those are over-represented in the sample as a whole. Active and inactive are the calls of the source. Rule for the calls: active = growth percent below 10; inactive = the rest.
Output constraint: value belongs to 1.0 = active, 0.0 = inactive

Solved cases below.
Short answer needed: outcome of this test for Cn1ccnc1C(=O)/C=C/c1ccc(C(=O)Nc2ccc(NC(=O)CCNC(=O)c3csc(Br)n3)cc2)cc1 ? 0.0

Short answer needed: outcome of this test for CNC(=O)c1cc(Oc2ccc3nc(NC(=O)c4ccc(CN5CCCN(C)CC5)c(C(F)(F)F)c4)sc3c2)ccn1 ? 1.0

Short answer needed: outcome of this test for CCN(CC)CCN1C(=O)c2c(c3c4cccnc4[nH]c3c3ccc4ccccc4c23)C1=O ? 0.0

Short answer needed: outcome of this test for O=C(Nc1cccc(-c2nc(-c3ccc(NC(=O)c4cccs4)cc3Cl)no2)c1)Nc1ccc(NC(=O)C2CC2)c(C(F)(F)F)c1 ? 1.0

Short answer needed: outcome of this test for COc1ccccc1/C=C/C=N/NC1=NC2C(S1)N(C)C(=O)N2c1ccccc1 (stereo not drawn) ? 0.0

Short answer needed: outcome of this test for Cc1cc(O)c(=O)cc2c1C[C@H]1CC(C)(C)/C=C/C[C@]3(C)Oc4cc(=O)c(O)cc(C)c4C[C@H]3C[C@H](O)[C@@]1(C)O2 ? 0.0

Short answer needed: outcome of this test for COc1ccc(OC)c([C@H]2c3[nH]c4ccccc4c3C[C@H]3C(=O)N(CCCCCCC(=O)NO)CC(=O)N23)c1 ? 0.0

Please turn your attention to the following entry.
Short answer needed: outcome of this test for CCOc1c(C#N)c(Nc2ccc(S(N)(=O)=O)cc2)c(C#N)c2nnc(C)n12 ? 0.0
